assay_comment: qHTS Assay for Lipid Storage Modulators in Drosophila S3 Cells
recorded_conditions: BODIPY lipid droplet fluorescence, 18-24 h, cells fed with added oleic acid; series mostly up to 46.1 µM
The campaign covered roughly 320,000 compounds. About 2,100 (0.66%) were called active. Another 53% or so got no clear call; they are omitted. Calls follow the shape of the dose curve; as a rule, active = well fitted inhibition curve with a large enough effect in the signal ratio, with a control signal flat (not every such curve was filed as active); inconclusive = small, poorly fitted or top-dose-only effect, or effect the other way, or a change in a side signal; inactive = flat fitted curve, though single readings scatter; the % refers to the signal ratio. The entries come from a sample that favours actives as a whole.
Labels: true (active), false (inactive)

compound: Cc1ccc(-n2c3c(c(=O)[nH]c2=O)C(C(F)(F)F)(C(F)(F)F)NC(=O)N3)cc1
discrete_label: false
--
compound: CC(=O)Nc1ccc(NC(=O)C(C)OC(=O)CCc2nc3ccccc3s2)cc1 (stereo unspecified)
discrete_label: false
--
compound: CC(C(=O)NCc1ccc2c(c1)OCO2)N(c1ccccc1)S(C)(=O)=O (stereo unspecified)
discrete_label: false
--
compound: CC(OC(=O)CCCc1nc2ccccc2s1)C(N)=O (stereo unspecified)
discrete_label: true
--
compound: Cn1c(SCC(=O)NCc2ccco2)nnc1-c1ccc(S(=O)(=O)N2CCOCC2)cc1
discrete_label: true
--
compound: O=C(NCc1cccnc1)C1CCCN(Cc2cnn(-c3ccccc3)c2-n2cccc2)C1 (stereo unspecified)
discrete_label: false
--
compound: COc1ccc(-n2nc3c(c2NC(=O)CBr)CSC3)cc1
discrete_label: false
--
compound: CCNC(=O)NC(=O)C(C)OC(=O)CCCc1nc2ccccc2s1 (stereo unspecified)
discrete_label: false
--
compound: O=C(Nc1ccccc1F)C1COc2ccccc2O1 (stereo unspecified)
discrete_label: false
--
compound: CCOC(=O)N1CCN(C(=O)c2ccc(Cn3c(=S)[nH]c4cc(OCC)c(OCC)cc4c3=O)cc2)CC1
discrete_label: false
--
compound: O=C(O)c1ccccc1C(=O)NCCCn1ccnc1
discrete_label: false

====

assay_comment: qHTS Assay for Lipid Storage Modulators in Drosophila S3 Cells
recorded_conditions: BODIPY lipid droplet fluorescence, 18-24 h, cells fed with added oleic acid; series mostly up to 46.1 µM
The whole screen tested about 320,000 compounds, of which about 2,100 (0.66%) were called active. About 53% were inconclusive and are not listed. The call rests on the fitted dose curve; in most records, active means well fitted inhibition curve with a large enough effect in the signal ratio, with a control signal flat (not every such curve was filed as active); inconclusive means small, poorly fitted or top-dose-only effect, or effect the other way, or a change in a side signal; inactive means flat fitted curve, though single readings scatter; the % refers to the signal ratio. Shown is part of a subset that was picked to be rich in actives.
Labels: active, inactive

compound: O=C(CN1CCN(Cc2ccccc2)CC1)N1CCN(c2ccccc2)CC1
discrete_label: inactive
--
compound: CCCN1C(=O)C2C(C(=O)Nc3cccc(OC)c3)C3C=CC2(O3)C1C(=O)NC1CCCCC1 (stereo unspecified)
discrete_label: inactive
--
compound: CCNC(=O)C(=O)Nc1cc2c3c(c1)CCN3C(=O)CC2
discrete_label: active
--
compound: CN(CC(=O)Nc1ccc(Cl)c(Cl)c1)C(=O)CNC(=O)Cc1ccccc1
discrete_label: inactive
--
compound: Cn1c(N)c(C(=O)/C=C/c2ccccc2)c(=O)[nH]c1=O
discrete_label: inactive
--
compound: CC1=NN(Cc2ccccc2)C(=O)C1
discrete_label: inactive

====

assay_comment: qHTS Assay for Lipid Storage Modulators in Drosophila S3 Cells; as to lipid storage change, negative = inhibition: % is scaled to controls: 0 for no effect and ±100 for the full control effect
recorded_conditions: BODIPY lipid droplet fluorescence, 18-24 h, cells fed with added oleic acid; series mostly up to 46.1 µM
Screen size: about 320,000 compounds; about 2,100 (0.66%) were called active. Another 53% or so got no clear call; they are omitted. What follows is part of a selection rich in actives, with near analogues and random picks from the rest.
measured_quantity: lipid storage change, negative = inhibition

compound: CCN1CCc2c(sc(NC(=O)c3ccc4ccccc4c3)c2C(N)=O)C1
result: -25.3% [at 0.369 µM] (inactive)
--
compound: COc1cccc(C(=O)Nc2ccc(C3CC3(Cl)Cl)cc2)c1 (stereo unspecified)
result: 15.6% [at 9.22 µM] (inactive)
--
compound: C=CCc1ccc(OCCCCNC2CCCC2)c(OC)c1
result: -10.2% [at 9.22 µM] (inactive)
--
compound: COC(=O)c1ccc(NC(=O)CSc2nc3[nH]ncc3c(=O)[nH]2)cc1
result: -11.4% [at 0.0737 µM] (inactive)
--
compound: O=S(=O)(NCC(c1cccs1)N1CCc2ccccc2C1)c1ccccc1 (stereo unspecified)
result: -15.3% [at 0.0737 µM] (inactive)
--
compound: O=C1c2ccccc2C(=O)c2c(NCCCN(CCO)CCO)cccc21
result: 13.2% [at 9.22 µM] (inactive)
